Hello, the source for this data is patent US10125116B2, in case you need it.

As shown below, each of these molecules has a reported melting point value.

response.value for C[C@H](Oc1ccnc2ccccc12)c1cn(-c2ccc(Cl)c(Cl)c2)nn1 [Compound 30] (field: melting point) = 64 to 66 °C

response.value for `C[C@H](Oc1ccnc2ccccc12)c1cn(-c2ccc(C#N)c(Cl)c2)nn1` (field: melting point) = 176 to 178 °C

response.value for CC(Oc1cccc2c1ccc[n+]2[O-])c1cn(-c2ccc(Cl)cc2)nn1 (centres unmarked) [Compound 25] (field: melting point) = 165 to 167 °C

response.value for O=C(Nc1ccc(Cl)cc1)C(Oc1cccc2ccccc12)C1CC1 (centres unmarked) [Compound 119] (field: melting point) = 204 to 206 °C

response.value for `C[C@@H](Oc1ccnc2ccccc12)c1cn(-c2ccc(C#N)c(Cl)c2)nn1` (field: melting point) = 176 to 178 °C
